- assay comment: Inhibition of yeast alpha-glucosidase by Lineweaver-Burke double reciprocal plot
- Set-up: species or system Saccharomyces cerevisiae
value kind: Ki (nM)
Give the quantity in nM, number only.

IN: // query Ki value for entry COc1ccc([C@H]2N[C@H](CO)[C@@H](O)[C@@H]2O)cc1OC
OUT: 700

###

- assay comment: Inhibition of Bacillus stearothermophilus alpha-glucosidase
- Design: species or system Geobacillus stearothermophilus
value kind: pIC50
Note on units: pIC50 is unitless, being -log10 of a concentration expressed in mol/L.

OC[C@H]1N[C@H](c2ccccc2)[C@@H](O)[C@@H]1O = 4.44
COc1cccc([C@H]2N[C@H](CO)[C@@H](O)[C@@H]2O)c1 = 4.51
COc1ccc([C@@H]2[C@@H](O)[C@H](O)[C@@H](CO)N2C)cc1 = 5.04
COc1ccc([C@H]2N[C@H](CO)[C@@H](O)[C@@H]2O)c(OC)c1 = 5.08

IN: // query pIC50 value for entry COc1ccc(OC)c([C@H]2N[C@H](CO)[C@@H](O)[C@@H]2O)c1
OUT: 5.40

IN: // query pIC50 value for entry COc1ccc([C@@H]2[C@@H](O)[C@H](O)[C@@H](CO)N2C)cc1OC
OUT: 4.62

IN: // query pIC50 value for entry COc1ccc([C@H]2N[C@H](CO)[C@@H](O)[C@@H]2O)cc1OC
OUT: 5.74
